Where do the numbers come from? From patent US6525059B1.

Catalogue of compounds with associated melting point
endpoint-label: melting point

- compound: "Cc1n[nH]c(-c2c(F)cccc2F)c1-c1ccncc1"
  endpoint-label: "melting point"
  experimental-result: "236.67 °C"
- compound: "N#CCCCSc1[nH]nc(-c2ccc(Cl)cc2)c1-c1ccncc1"
  endpoint-label: "melting point"
  experimental-result: "216.7 to 216.9 °C"
- compound: "Clc1ccc(-c2n[nH]c(SCCc3c[nH]c4ccccc34)c2-c2ccncc2)cc1"
  endpoint-label: "melting point"
  experimental-result: "211.9 to 213.2 °C"
- compound: "Clc1ccc(-c2n[nH]c(OCCN3CCOCC3)c2-c2ccncc2)cc1"
  endpoint-label: "melting point"
  experimental-result: "198.9 to 199.9 °C"
- compound: "O=C(Cc1ccncc1)c1ccc(Cl)cc1"
  endpoint-label: "melting point"
  experimental-result: "95.5 to 97.3 °C"
- compound: "Cc1ccccc1-c1n[nH]c(N2CCN(C)CC2)c1-c1ccncc1"
  endpoint-label: "melting point"
  experimental-result: "244 to 244.2 °C"
- compound: "O=C1OCCC1CSc1[nH]nc(-c2ccc(Cl)cc2)c1-c1ccncc1 (stereo not drawn)"
  endpoint-label: "melting point"
  experimental-result: "224.2 to 225.9 °C"
- compound: "CCc1ccc(-c2[nH]nc(N3CCN(C)CC3)c2-c2ccncc2)cc1"
  endpoint-label: "melting point"
  experimental-result: "221.6 to 222.6 °C"
- compound: "CN1CCN(c2n[nH]c(-c3cccc(C(F)(F)F)c3)c2-c2ccncc2)CC1"
  endpoint-label: "melting point"
  experimental-result: "212.6 to 213.7 °C"
- compound: "C=Cc1ccc(-c2[nH]nc(N3CCN(C)CC3)c2-c2ccncc2)cc1"
  endpoint-label: "melting point"
  experimental-result: "> 300 °C"
- compound: "COc1ccc(C(=O)C(=C2SCS2)c2ccncc2)cc1"
  endpoint-label: "melting point"
  experimental-result: "203 to 204.1 °C"
- compound: "O=C(CSc1[nH]nc(-c2ccc(Cl)cc2)c1-c1ccncc1)N1CCOCC1"
  endpoint-label: "melting point"
  experimental-result: "215.4 to 215.5 °C"
- compound: "CC(C)(C)OC(=O)N1CCC(Sc2[nH]nc(-c3ccc(Cl)cc3)c2-c2ccncc2)CC1"
  endpoint-label: "melting point"
  experimental-result: "220.9 to 221 °C"
- compound: "COc1ccc(COc2[nH]nc(-c3ccc(Cl)cc3)c2-c2ccncc2)cc1"
  endpoint-label: "melting point"
  experimental-result: "229.1 to 229.2 °C"
- compound: "CSC(SC)=C(C(=O)c1ccc(F)cc1)c1ccncc1"
  endpoint-label: "melting point"
  experimental-result: "80.2 to 82.1 °C"
- compound: "COC(=O)CSc1[nH]nc(-c2ccc(Cl)cc2)c1-c1ccncc1"
  endpoint-label: "melting point"
  experimental-result: "192.8 to 195.2 °C"
- compound: "CN(C)c1ccc(C(=O)C(=C2SCS2)c2ccncc2)cc1"
  endpoint-label: "melting point"
  experimental-result: "197.3 to 202.2 °C"
- compound: "O=C(O)CNc1[nH]nc(-c2ccc(Cl)cc2)c1-c1ccncc1.[Li+]"
  endpoint-label: "melting point"
  experimental-result: "> 300 °C"
- compound: "CN1CCN(c2[nH]nc(-c3ccc(Br)cc3)c2-c2ccncc2)CC1"
  endpoint-label: "melting point"
  experimental-result: "270.2 to 270.7 °C"
- compound: "NCCSc1[nH]nc(-c2ccc(Cl)cc2)c1-c1ccncc1"
  endpoint-label: "melting point"
  experimental-result: "186.8 to 187.8 °C"
- compound: "CCc1cccc(-c2[nH]nc(CC)c2-c2ccncc2)c1"
  endpoint-label: "melting point"
  experimental-result: "192.66 °C"
- compound: "Cc1cc(-c2n[nH]c(N3CCN(C)CC3)c2-c2ccncc2)ccc1Cl"
  endpoint-label: "melting point"
  experimental-result: "236.7 to 239.3 °C"
- compound: "CN1CCC(Sc2[nH]nc(-c3ccc(Cl)cc3)c2-c2ccncc2)CC1"
  endpoint-label: "melting point"
  experimental-result: "227.7 °C"
- compound: "Fc1cccc(-c2[nH]ncc2-c2ccncn2)c1"
  endpoint-label: "melting point"
  experimental-result: "168.58 °C"
- compound: "OCCn1nc(-c2ccc(F)cc2)c(-c2ccncc2)c1C1CC1"
  endpoint-label: "melting point"
  experimental-result: "155 to 157 °C"
- compound: "Clc1ccc(-c2n[nH]c(SCCOC3CCCCO3)c2-c2ccncc2)cc1 (stereo not drawn)"
  endpoint-label: "melting point"
  experimental-result: "163.2 to 163.5 °C"
- compound: "CN1CCN(c2n[nH]c(-c3ccc(C#N)cc3)c2-c2ccncc2)CC1"
  endpoint-label: "melting point"
  experimental-result: "> 300 °C"
- compound: "C#CCN1CCN(c2n[nH]c(-c3ccc(Cl)cc3)c2-c2ccncc2)CC1"
  endpoint-label: "melting point"
  experimental-result: "247 °C (dec.)"
- compound: "COc1ccc(C(=O)C(=C2SCS2)c2ccncc2)cc1Cl"
  endpoint-label: "melting point"
  experimental-result: "191.5 to 192.5 °C"
- compound: "N#Cc1cccc(C(=O)C(=C2SCS2)c2ccncc2)c1"
  endpoint-label: "melting point"
  experimental-result: "168.6 to 168.7 °C"
- compound: "O=C(C(=C1SCS1)c1ccncc1)c1ccc(Cl)cc1"
  endpoint-label: "melting point"
  experimental-result: "185.3 to 185.4 °C"
- compound: "Fc1ccc(-c2n[nH]c(SCC3OCCO3)c2-c2ccncc2)cc1"
  endpoint-label: "melting point"
  experimental-result: "202.1 to 205.4 °C"
- compound: "CC(C)(C)OC(=O)NCCOc1[nH]nc(-c2ccc(Cl)cc2)c1-c1ccncc1"
  endpoint-label: "melting point"
  experimental-result: "> 300 °C"
- compound: "Fc1ccc(-c2n[nH]c(-c3ccncc3)c2-c2ccncc2)cc1"
  endpoint-label: "melting point"
  experimental-result: "304 °C"
- compound: "N#CCSc1[nH]nc(-c2ccc(Cl)cc2)c1-c1ccncc1"
  endpoint-label: "melting point"
  experimental-result: "230 to 230.5 °C"
- compound: "OCCn1nc(-c2ccc(F)cc2)c(-c2ccncc2)c1-c1cnc[nH]1"
  endpoint-label: "melting point"
  experimental-result: "227 to 228 °C"

====

# test-target: human GST-p38 kinase alpha (Homo sapiens, UniProt Q16539)
# Construct: The coding region of the human p38a cDNA was obtained by PCR-amplification from RNA isolated from the human monocyte cell line THP.1; made in house; host or cells: E. coli DH10B
# Sequence (Q16539 whole entry): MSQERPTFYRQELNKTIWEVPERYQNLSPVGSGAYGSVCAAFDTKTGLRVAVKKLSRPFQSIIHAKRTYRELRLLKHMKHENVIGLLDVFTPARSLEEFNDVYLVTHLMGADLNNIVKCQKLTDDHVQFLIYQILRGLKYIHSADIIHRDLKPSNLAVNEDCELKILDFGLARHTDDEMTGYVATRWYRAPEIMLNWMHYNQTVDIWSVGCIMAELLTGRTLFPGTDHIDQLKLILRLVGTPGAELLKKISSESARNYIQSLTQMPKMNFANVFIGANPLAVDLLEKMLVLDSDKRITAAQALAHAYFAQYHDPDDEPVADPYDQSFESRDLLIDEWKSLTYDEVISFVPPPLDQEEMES
# protocol-description: p38 kinase in vitro assay, second format, phosphorylation of EGFRP with 33P-ATP
# Type: biochemical
# study-conditions: Table 8, 10% DMSO; read-out: p38α Kinase Assay IC50
# Method: A second assay format was also employed that is based on p38 kinase alpha induced phosphorylation of EGFRP (epidermal growth factor receptor peptide, a 21 mer) in the presence of ^33P-ATP. […] Compounds were evaluated in 50 μl reaction volumes in the presence of 25 mM Hepes pH 7.5, 10 mM magnesium acetate, 4% glycerol, 0.4% bovine serum albumin, 0.4 mM DTT, 50 μM unlabeled ATP, 25 μg EGFRP (200 μM), and 0.05 uCi gamma ^33P-ATP. […]
Structures can show the parent of a compound that is named as a salt.
endpoint-label: IC50 (nM)

- compound: "COc1ccccc1Nc1nccc(-c2cn[nH]c2-c2ccc(F)cc2)n1"
  limit-qualifier: "="
  experimental-result: 970
- compound: "Fc1ccc(-c2[nH]nc(CN3CCNCC3)c2-c2ccncc2)cc1"
  limit-qualifier: "="
  experimental-result: 32
- compound: "CN1CCC(Nc2n[nH]c(-c3ccc(F)cc3)c2-c2ccncc2)CC1"
  limit-qualifier: "="
  experimental-result: 18
- compound: "O=C(c1n[nH]c(-c2ccc(F)cc2)c1-c1ccncc1)N1CCNCC1"
  limit-qualifier: "="
  experimental-result: 370
- compound: "CN1CCC(Nc2n[nH]c(-c3ccc(Cl)cc3)c2-c2ccncc2)CC1"
  limit-qualifier: "="
  experimental-result: 70
- compound: "CN1CCN(c2n[nH]c(-c3ccc(F)cc3)c2-c2ccncc2)CC1 [Example A-317, dihydrate]"
  limit-qualifier: "="
  experimental-result: 70
- compound: "COc1ccccc1N1CCN(c2n[nH]c(-c3ccc(Cl)cc3)c2-c2ccncc2)CC1"
  limit-qualifier: "="
  experimental-result: 1160
- compound: "Fc1ccc(-c2[nH]ncc2-c2ccnc(Nc3ccccc3F)n2)cc1"
  limit-qualifier: "<"
  experimental-result: 100
- compound: "Fc1ccc(-c2[nH]nc(NC3CCNCC3)c2-c2ccncc2)cc1 [Example A-339, trihydrochloride]"
  limit-qualifier: "="
  experimental-result: 52
- compound: "CCOC(=O)N1CCC(Nc2n[nH]c(-c3ccc(Cl)cc3)c2-c2ccncc2)CC1"
  limit-qualifier: "="
  experimental-result: 640
- compound: "C#CCN1CCN(c2n[nH]c(-c3ccc(Cl)cc3)c2-c2ccncc2)CC1"
  limit-qualifier: "="
  experimental-result: 52
- compound: "CC1CN(c2[nH]nc(-c3ccc(Cl)cc3)c2-c2ccncc2)CCN1 (stereo not drawn)"
  limit-qualifier: "="
  experimental-result: 16
- compound: "CN1CCN(c2n[nH]c(-c3cccc(Cl)c3)c2-c2ccncc2)CC1"
  limit-qualifier: "="
  experimental-result: 150
- compound: "CN1CCN(Cc2n[nH]c(-c3ccc(F)cc3)c2-c2ccncc2)CC1"
  limit-qualifier: "="
  experimental-result: 370
- compound: "CCOC(=O)N1CCC(Nc2n[nH]c(-c3ccc(F)cc3)c2-c2ccncc2)CC1 [Example A-337, monohydrate]"
  limit-qualifier: "="
  experimental-result: 1350
- compound: "C#CCNc1nccc(-c2cn[nH]c2-c2ccc(F)cc2)n1"
  limit-qualifier: "="
  experimental-result: 80
- compound: "Fc1ccc(-c2n[nH]c(CC3CCNCC3)c2-c2ccncc2)cc1"
  limit-qualifier: "="
  experimental-result: 49
- compound: "Clc1ccc(-c2[nH]nc(N3CCN(c4ccccc4)CC3)c2-c2ccncc2)cc1"
  limit-qualifier: "="
  experimental-result: 89900
